Source of measurements: PubChem BioAssay (NCI)

Assignment: determine reported GI50 for the given compounds.
# Tested on: SF-268 CNS
# measurement-description: NCI tumour cell line growth inhibition, 48 h

Request: What value of GI50 has been reported for the following compound? C=C1CCC2C3(C)COC(c4ccc(Cl)cc4)OC3CCC2(C)C1/C=C/C1=CCOC1=O (centres undefined)
Response: 19.9 µM

Request: What value of GI50 has been reported for the following compound? O=S(=O)(Nc1ccc2ccccc2c1)c1ccc(-c2cnc(C3CC3)o2)cc1
Response: 3.44 µM

Request: What value of GI50 has been reported for the following compound? Cc1nnc(-c2ccc(C)c(-c3ccc(C(=O)NCc4ccc(Cl)cc4)cc3)c2)o1
Response: 12.9 µM

Request: What value of GI50 has been reported for the following compound? CN1CCN(Cc2ccc(NC(=O)c3cncc(C#Cc4cnn5ccccc45)c3)cc2C(F)(F)F)CC1
Response: 1.05 µM

Request: What value of GI50 has been reported for the following compound? O=C(O)Cn1c2c(c3c(O)cccc31)C(=O)c1ccccc1-2
Response: > 100 µM

Request: What value of GI50 has been reported for the following compound? N#Cc1c(N)nc(N2CCSCC2)c(C#N)c1-c1ccc(O)cc1
Response: 18.2 µM

Request: What value of GI50 has been reported for the following compound? COc1ccc2c(c1)C(=O)c1c-2n(CCCN)c(=O)c2cc(OC)c(OC)cc12
Response: 0.515 µM

Request: What value of GI50 has been reported for the following compound? CO[C@@H]1[C@H]2[C@@H](C)c3ccoc3C[C@@H]2[C@@]2(C)CC[C@H](OC(=O)c3ccccc3)[C@](C)(C(=O)O)[C@]2(O)[C@@H]1OC(=O)c1ccccc1
Response: 21.2 µM

Request: What value of GI50 has been reported for the following compound? O=C(NNC(=S)Nc1ccccc1)c1ccccn1
Response: 2.66 µM

* * *

Assignment: determine reported TGI for the given compounds.
# Test system: MOLT-4 leukemia
# measurement-description: NCI tumour cell line growth inhibition, 48 h
Dear colleague, please return just the value in µM, with no unit written.

Request: What value of TGI has been reported for the following compound? CC[C@@H](C)Nc1cc(C(=O)NC2CC3CCC(C2)N3c2ccc(C(=O)C3CC3)cn2)c(C)cc1C(N)=O (stereo not given in full)
Response: 31

Request: What value of TGI has been reported for the following compound? C[C@]12CC[C@@H]3c4ccc(OCCN5CCCC5)cc4CC[C@H]3[C@@H]1CCC2=O
Response: 70.2

Request: What value of TGI has been reported for the following compound? O=C(Nc1cccc(Cl)c1)c1cc(N=Nc2ccc([N+](=O)[O-])cc2Cl)ccc1O
Response: 4.4

Request: What value of TGI has been reported for the following compound? CC(O[Si](c1ccccc1)(c1ccccc1)C(C)(C)C)[C@H](NC(=O)OC(C)(C)C)C(=O)O (stereo not given in full)
Response: 46.1

Request: What value of TGI has been reported for the following compound? Cc1cc(C)n(CN(Cn2nc(C)cc2C)c2ccccc2)n1
Response: 28.3

* * *

# System: EKVX NSCLC
# measurement-description: NCI tumour cell line growth inhibition, 48 h
parameter: TGI

Request: What value of TGI has been reported for the following compound? CCOC(=O)NC(Nc1ccc(Cl)cn1)(C(F)(F)F)C(F)(F)F
Response: > 100 µM

Request: What value of TGI has been reported for the following compound? COc1cc(CC(C(=O)O)C(=O)O)c(OC)cc1CC(C(=O)O)C(=O)O
Response: > 100 µM

Request: What value of TGI has been reported for the following compound? C1CCN2CC3CCCN4CCCC(C2C1)C34 (centres undefined)
Response: > 100 µM

Request: What value of TGI has been reported for the following compound? CSc1ccc(C2=NN(C(C)=O)C(c3ccc(F)cc3)C2)cc1 (centres undefined)
Response: 64.7 µM

Request: What value of TGI has been reported for the following compound? Cc1ccc(C)n1-n1c(-c2ccccc2)n[nH]c1=O
Response: > 100 µM

Request: What value of TGI has been reported for the following compound? Oc1cc(CN2COc3ccccc32)c(O)cc1CNC1CCCCC1
Response: 36.3 µM

Request: What value of TGI has been reported for the following compound? COC(=O)c1cc(C)n(CN(Cc2ccccc2)Cn2nc(C(=O)OC)cc2C)n1
Response: > 100 µM

Request: What value of TGI has been reported for the following compound? COC1(CC[C@H](C)COC2OC(CO)C(O)C(O)C2O)O[C@H]2C[C@H]3[C@@H]4CC=C5C[C@@H](OC6OC(CO)C(O)C(OC7OC(CO)C(O)C(O)C7O)C6OC6OC(C)C(O)C(O)C6O)CC[C@]5(C)[C@H]4CC[C@]3(C)[C@H]2[C@@H]1C (some centres undefined)
Response: > 51 µM

Request: What value of TGI has been reported for the following compound? Cc1cc(C)n(C(=O)CSc2nnc(SCC(=O)n3nc(C)cc3C)s2)n1
Response: > 100 µM

* * *

# Test system: MOLT-4 leukemia
# measurement-description: NCI tumour cell line growth inhibition, 48 h
Assignment: determine reported TGI for the given molecules.

Request: What value of TGI has been reported for the following molecule? O=C1C2ON3c4ccccc4C(=O)C3(c3ccccc3)C2C(=O)N1c1ccccc1 (centres undefined)
Response: > 100 µM

Request: What value of TGI has been reported for the following molecule? COc1cc(-c2ccc(NC(=O)NC3CC3)c(OC)c2)ccc1NC(=O)NC1CC1
Response: > 100 µM

Request: What value of TGI has been reported for the following molecule? CC[C@]12C=CCN3CC[C@@]4(c5ccc(OC)cc5N(C)[C@H]4[C@@](O)(C(=O)OC)[C@@H]1OC(=O)CCC(=O)N[C@H](Cc1c[nH]c4ccccc14)C(=O)OC)[C@@H]32
Response: > 100 µM

Request: What value of TGI has been reported for the following molecule? Cc1c(C2Cc3ccccc3N2)c2ccccc2n1C (centres undefined)
Response: > 100 µM

Request: What value of TGI has been reported for the following molecule? CC(=O)ON(C(C)=O)C1C(COC(c2ccccc2)(c2ccccc2)c2ccccc2)OC2OC3(CCCC3)OC21 (centres undefined)
Response: > 31 µM

Request: What value of TGI has been reported for the following molecule? N#CCCN(CCC#N)c1ccc(/C=C2\N=C(c3cc([N+](=O)[O-])ccc3Cl)N(NC(=O)CC(=O)Nc3ccccc3Cl)C2=O)cc1
Response: > 100 µM

Request: What value of TGI has been reported for the following molecule? CSc1nc(NC2OC(COC(C)=O)C(OC(C)=O)C(OC(C)=O)C2OC(C)=O)c(N=C(C)C(C)=O)c(=O)n1C (centres undefined)
Response: > 100 µM

Request: What value of TGI has been reported for the following molecule? O=C(CCOS(=O)(=O)CF)N1CCN(C(=O)CCOS(=O)(=O)CF)CC1
Response: 36.3 µM

Request: What value of TGI has been reported for the following molecule? CSc1ccc(C2=NN(C(C)=O)C(c3ccc(F)cc3)C2)cc1 (centres undefined)
Response: 9.69 µM

Request: What value of TGI has been reported for the following molecule? COc1ccc2c(c1)C(N)=C(Cc1ccncc1)C2=O
Response: > 100 µM

Request: What value of TGI has been reported for the following molecule? O=C(NNC(=S)NCc1ccccc1)C12CC3CC(CC(C3)C1)C2
Response: > 100 µM

Request: What value of TGI has been reported for the following molecule? CCOC(=O)NC(=O)c1cn(CCN2CCNCC2)c(=O)[nH]c1=O
Response: > 100 µM

Request: What value of TGI has been reported for the following molecule? CCOC(=O)c1csc(NC(=O)COc2cccc(/C=C3\CSc4ccccc4C3=O)c2)n1
Response: > 100 µM

Request: What value of TGI has been reported for the following molecule? O=C1C(=O)N(c2cccc(C(F)(F)F)c2)C(=O)C(=O)C1c1nc2ccccc2s1
Response: > 100 µM

Request: What value of TGI has been reported for the following molecule? CC1=C2[C@H](c3ccccc3)C3C=CC2(c2ccccc23)N(C(=O)C(c2ccccc2)c2ccccc2)C1=O (some centres undefined)
Response: > 100 µM

Request: What value of TGI has been reported for the following molecule? CC(C)CCC(=O)[C@@H](C)[C@H]1[C@@H](OC2OCC(O)C(O)C2NS(C)(=O)=O)C[C@H]2[C@@H]3CC=C4C[C@@H](O)CC[C@]4(C)[C@H]3CC[C@]12C (some centres undefined)
Response: 2.57 µM

Request: What value of TGI has been reported for the following molecule? COCOCC[C@@H]1CC=CC(NC(=O)OCc2ccccc2)C1/C=C/C(=O)CCC1OCCO1 (some centres undefined)
Response: 43.4 µM

Request: What value of TGI has been reported for the following molecule? CC(CCCC1SCC2NC(=O)NC21)C(=O)O (centres undefined)
Response: > 100 µM

Request: What value of TGI has been reported for the following molecule? Nc1ccc2c(c1)Oc1c(F)c(F)cc3c(=O)c(C(=O)O)cn-2c13
Response: > 100 µM
